- Read-out: Interleukin-8 (IL8), CXCL8 (gene 3576)
- Test Name: BSK_3C_IL8: BioMAP Diversity Plus: 3C Assay for Interleukin-8 (IL8) Biomarker Activity (AID 2283020)
- Assay Context: primary human endothelial cells (HUVEC); actives raise or lower the signal
The source made the active and inactive calls. How the source made its calls: active means hit-call score of the fitted dose curve at least 0.9, where 1 is the maximum; inactive means score below 0.9.
Metric Name: AC50

Some entries whose results are on file:
molecule="C=CC(=O)OCC(Br)CBr (stereo unspecified)" metric_name=AC50 test_result="20 µM (active)"
molecule=Nc1ccc(N)c(Cl)c1 metric_name=AC50 test_result=inactive
molecule=CC(C)(c1cc(Br)c(OCCO)c(Br)c1)c1cc(Br)c(OCCO)c(Br)c1 metric_name=AC50 test_result="16.2 µM (active)"
molecule="CCCCC(CC)COCC1CO1 (stereo unspecified)" metric_name=AC50 test_result=inactive

Attention now shifts to the item below.
Exercise: Quick one: give measured AC50 for `CO[Si](OC)(OC)c1ccccc1`
Key: inactive
